TEST_DETAILS: Toxicokinetic evaluation of 14-day repeated intragastric administration to SD rats
Type: in vivo
TEST_SETTINGS: both sexes, SD, rat, plasma, po, 15 mg/kg, repeated intragastric 15 mg/kg, Day 1, read-out: Plasma concentration Cmax
OBSERVATION_TYPE: Cmax at 1 day
Put down the number, then write its unit next to it.

Query Cmax at 1 day for "Cc1ccc(F)c([C@H](C)Nc2nc(=O)n(C3CCOCC3)c(=O)[nH]2)c1" 16100 ng/mL

---

TEST_DETAILS: Toxicokinetic evaluation of 14-day repeated intragastric administration to SD rats
Format: in vivo
TEST_SETTINGS: both sexes, SD, rat, plasma, po, 15 mg/kg, repeated intragastric 15 mg/kg, Day 14, read-out: Half-life T1/2 (converted)
OBSERVATION_TYPE: half-life (h)
Write it as a number; the unit h goes unstated.

Query half-life for "Cc1ccc(F)c([C@H](C)Nc2nc(=O)n(C3CCOCC3)c(=O)[nH]2)c1" 5.6

Each recorded value in this set is attributed to patent US20240010639A1.
